Where a name gives a salt, the structure may show the parent alone.
// endpoint GI50 / system HCT116 cells
metric name: GI50 (µM)

Look over these answered cases.
O=C(O)c1ccc(-c2ccc(-c3ccc(Br)cc3)n2-c2ccccc2C(F)(F)F)cc1    4.74
CN(C)CCNC(=O)c1ccc(-c2ccc(-c3ccc(Br)cc3)n2-c2ccccc2CN(C)C)cc1 [Example 40, hydrochloride]    1.03
CN(C)CCCNC(=O)c1ccc(-c2ccc(-c3ccc(Cl)cc3)n2-c2ccccc2C(F)(F)F)cc1    0.03

P. CN(C)CCCNC(=O)c1ccc(-c2ccc(-c3ccc(Cl)cc3)n2-c2ncccc2C(F)(F)F)cc1 [Example 80, hydrochloride]
Q. CN(C)CCNC(=O)c1cccc(-c2ccc(-c3ccc(Oc4ccccc4)cc3)n2-c2ccc(F)cc2)c1 [Example 8, hydrochloride]
Exam item: Looking at P and Q , which one comes out lower in GI50 terms? Respond using the label that marks the chosen record.
Marked response: Q

I. CN(C)CCCNC(=O)c1ccc(-c2ccc(-c3ccc(F)cc3)n2-c2ccccc2C(F)(F)F)cc1 [Example 60, hydrochloride]
II. CN(C)CCNC(=O)c1ccc(-c2ccc(-c3ccc(Cl)cc3)n2-c2ccccc2C(F)(F)F)s1 [Example 99, hydrochloride]
Exam item: Thinking about recorded GI50 values, which is higher, I or II ? Respond using the label that marks the chosen record.
Marked response: I
(I: 0.06 µM, II: 0.04 µM)

a. CN(C)CCNC(=O)c1ccc(-c2ccc(-c3ccc(F)nc3)n2-c2ccccc2C(F)(F)F)cc1 [Example 42, hydrochloride]
b. CC(C)Cc1ccc(C(F)(F)F)c(-n2c(-c3ccc(Cl)cc3)ccc2-c2ccc(C(=O)NCCN(C)C)cc2)c1 [Example 63, hydrochloride]
c. CN(C)CCCNC(=O)c1ccc(-c2ccc(-c3ccc(Br)cc3)n2-c2ccccc2C(F)(F)F)cc1
d. CN(C)CCNC(=O)c1cccc(-c2ccc(-c3ccc(Br)cc3)n2-c2ccccc2N)c1 [Example 56, hydrochloride]
Exam item: Rank the items in ascending order with respect to GI50. Labels, ranked as asked.
Marked response: c, a, b, d

a. COc1cc(C(=O)NCCN(C)C)ccc1-c1ccc(-c2ccc(Cl)cc2)n1-c1cnccc1C(F)(F)F [Example 73, hydrochloride]
b. CN1CC[C@@H](NC(=O)c2ccc(-c3ccc(-c4ccc(Cl)cc4)n3-c3ccccc3C(F)(F)F)cc2)C1 [Example 70, hydrochloride]
c. COc1ccc(C(=O)NCCN(C)C)cc1-c1ccc(-c2ccc(Br)cc2)n1-c1ccccc1C(F)(F)F [Example 52, hydrochloride]
d. CC(C)Cc1ccc(C(F)(F)F)c(-n2c(-c3ccc(Cl)cc3)ccc2-c2ccc(C(=O)NCCCN(C)C)cc2)c1 [Example 64, hydrochloride]
e. CN(C)CCNC(=O)c1ccc(Cl)c(-c2ccc(-c3ccc(Br)cc3)n2-c2ccccc2)c1 [Example 19, hydrochloride]
Exam item: Rank the items in ascending order with respect to GI50. Labels, ranked as asked.
Marked response: b, a, c, d, e
(b: 0.02 µM, a: 0.09 µM, c: 0.35 µM, d: 1.7 µM, e: 4.21 µM)

A. CN(C)CCCNC(=O)c1ccc(-c2ccc(-c3ccc(Cl)cc3)n2-c2ccccc2C(F)(F)F)nc1 [Example 62, hydrochloride]
B. CN1CCC(NC(=O)c2cccc(-c3ccc(-c4ccc(Br)cc4)n3-c3ccccc3C(F)(F)F)c2)CC1 [Example 11, hydrochloride]
Exam item: Looking at A and B , which one comes out lower in GI50 terms? Respond using the label that marks the chosen record.
Marked response: A

P. CN(C)CCOCc1ccc(-c2ccc(-c3ccc(Br)cc3)n2-c2ccccc2C(F)(F)F)cc1 [Example 45, Hydrochloride]
Q. CN(C)CCNC(=O)Cc1ccc(-c2ccc(-c3ccc(Cl)cc3)n2-c2ccccc2C(F)(F)F)cc1 [Example 91, hydrochloride]
R. COc1cc(C(=O)NCCCN(C)C)ccc1-c1ccc(-c2ccc(Cl)cc2)n1-c1cnccc1C(F)(F)F [Example 74, hydrochloride]
S. CN(C)CCNC(=O)c1ccc(-n2ncc(-c3ccc(Cl)cc3)c2-c2ccccc2C(F)(F)F)cc1 [Example 82, Hydrochloride]
Exam item: Rank the items in ascending order with respect to GI50. Labels, ranked as asked.
Marked response: Q, S, R, P
(Q: 0.01 µM, S: 0.04 µM, R: 0.13 µM, P: 0.35 µM)

1. CNCCNC(=O)c1cccc(-c2ccc(-c3ccc(Br)cc3)n2-c2ccccc2C(F)(F)F)c1
2. CN(C)CCNC(=O)c1ccc(-c2ccc(-c3ccc(Br)cc3)n2-c2ccccc2C(F)(F)F)c(Cl)c1 [Example 36, hydrochloride]
3. CN(C)CCNC(=O)c1ccc(-c2ccc(-c3ccc(C#N)cc3)n2-c2ccccc2C(F)(F)F)cc1
Exam item: Rank the items in ascending order with respect to GI50. Labels, ranked as asked.
Marked response: 2, 3, 1

I. CN1CCN(CCNC(=O)c2ccc(-c3ccc(-c4ccc(Cl)cc4)n3-c3ccccc3C(F)(F)F)cc2)CC1 [Example 88, hydrochloride]
II. CN(C)CCNC(=O)c1ccc(-c2ccc(-c3ccccc3)n2-c2cnccc2C(F)(F)F)c(Cl)c1 [Example 67, hydrochloride]
Exam item: Thinking about recorded GI50 values, which is higher, I or II ? Respond using the label that marks the chosen record.
Marked response: I
(I: 0.25 µM, II: 0.07 µM)
